The reported measurements were obtained from patent US20200255516A1.

Assignment: determine reported IC50 (read off the curve) for the given binders.
# target entity: T1, TIGIT fusion protein with Fc or mFc tag (human, UniProt Q495A1 22-141)
# T1 construct: extracellular domain; also called TIGIT-Fc; TIGIT-mFc
# T1 sequence (looked up): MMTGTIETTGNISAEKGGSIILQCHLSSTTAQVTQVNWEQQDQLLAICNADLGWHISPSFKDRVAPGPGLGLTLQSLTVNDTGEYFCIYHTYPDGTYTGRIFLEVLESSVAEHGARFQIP
# assay protocol: HTRF blocking assay: TIGIT-Fc or TIGIT-mFc with biotinylated CD155 as the blocked ligand, ratio 665/620

Task item: Given the entry h1707-02 (antibody, human IgG4 S228P, kappa, V domains shown, also called humanized TIGIT antibody h1707-02) VH: EVQLVESGGGLVQPGGSLRLSCAASGFTFSDYHMYWVRQAPGKGLEWVAYISKGGISTYYPDTVKGRFTISRDNAKNSLYLQMSRLRAEDTAVYYCARQSSYDFAMDYWGRGTLVTVSS VL: DIQMTQSPSFLSASVGDRVTITCKASQDVGTSVAWYQQKPGKAPKLLIYWASARHTGVPSRFSGSGSGTDFTLTISSLQPEDFATYYCQQYSSYPLTFGQGTKLEIKR , report its measured IC50 (read off the curve).
Reply: ~3 nM

Task item: Given the entry h1709-10 (antibody, human IgG4 S228P, kappa, V domains shown, also called humanized TIGIT antibody h1709-10) VH: EVQLVQSGAEVKKPGASVKVSCKASGYTFTDYYMHWVRQAPGQGLEWMGLVYPYNDNTGYNRKFKGRVTMTVDTSTSTVYMELNSLRSEDTAVYYCARGGPSNWNYFDYWGQGTLVTVSS VL: DIQMTQSPSSLSASVGDRVTITCKASQNVVTAVAWYQQKPGKSPKLLIYSASNRYTGVPDRFSGSGSGTDFTLTISSLQPEDFATYFCQQYTLYPLTFGGGTKVEIKR , report its measured IC50 (read off the curve).
Reply: ~3 nM

Task item: Given the entry h1708-04 (antibody, human IgG4 S228P, kappa, V domains shown, also called humanized TIGIT antibody h1708-04) VH: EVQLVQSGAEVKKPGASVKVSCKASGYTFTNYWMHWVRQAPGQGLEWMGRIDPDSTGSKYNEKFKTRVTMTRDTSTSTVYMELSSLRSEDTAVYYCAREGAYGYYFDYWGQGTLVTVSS VL: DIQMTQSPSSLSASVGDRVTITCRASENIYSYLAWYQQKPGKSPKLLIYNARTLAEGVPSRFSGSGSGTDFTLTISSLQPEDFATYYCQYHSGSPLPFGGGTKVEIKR , report its measured IC50 (read off the curve).
Reply: ~2 nM
